System: Bacillus subtilis
Test: Antimicrobial activity against Bacillus subtilis ATCC 6633 by tube dilution method
Format: functional
reportedMetric: MIC (µg/mL)
# unit: µg/mL | format: bare number

*Q* Sample `COc1cc2c(cc1C(C)C)CC[C@H]1C(C)(C)CCC[C@]21C(=O)O` — what was its MIC?
*A* 6.5

*Q* What value of MIC has been reported for the following compound? CC(C)C1=C(O)C(=O)C2=C(C1=O)[C@H](O)C[C@H]1C(C)(C)CCC[C@]21C [HORMINONE]
*A* 1.5

*Q* What value of MIC has been reported for the following compound? `CC(=O)O[C@@H]1C[C@H]2C(C)(C)CCC[C@]2(C)C2=C1C(=O)C(C(C)C)=C(O)C2=O`
*A* 3
